Substrate: CCCCCCCCCCCCCCC[C@@H](O)[C@H](CO)NC(=O)CCCCCCCCCCCC
Test: LC-MS/MS of C13-Cerd7 formed; Hanes-Woolf plot
Assay type: biochemical, Homo sapiens
Settings: homogenate of transfected KO-DES-HEK (80 μg, 30 min) plus 100 μg KO-DES-HEK homogenate, 0.2 M Tris/HCl pH 7, 0.2% Triton X-100, 1 mM NADPH, 37°C, deuterated substrate
The following proteins are listed with their measured Km values.

protein: DEGS1 (Homo sapiens; N189D) (protein, full-length cDNA (from Hep3B RNA) in pcDNA3, untagged, transfected into DEGS1-knockout HEK-293T (KO-DES-HEK); cell homogenate with Triton X-100) GSRVSREDFEWVYTDQPHADRRREILAKYPEIKSLMKPDPNLIWIIIMMVLTQLGAFYIVKDLDWKWVIFGAYAFGSCINHSMTLAIHEIAHNAAFGNCKAMWNRWFGMFANLPIGIPYSISFKRYHMDHHRYLGADGVDVDIPTDFEGWFFCTAFRKFIWVILQPLFYAFRPLFINPKPITYLEVIDTVAQVTFDILIYYFLGIKSLVYMLAASLLGLGLHPISGHFIAEHYMFLKGHETYSYYGPLNLLTFNVGYHNEHHDFPNIPGKSLPLVRKIAAEYYDNLPHYNSWIKVLYDFVMDDTISPYSRMKRHQKGEMVLE
Km, µM: 2.75

protein: DEGS1 (Homo sapiens; N255S) (protein, full-length cDNA (from Hep3B RNA) in pcDNA3, untagged, transfected into DEGS1-knockout HEK-293T (KO-DES-HEK); cell homogenate with Triton X-100) GSRVSREDFEWVYTDQPHADRRREILAKYPEIKSLMKPDPNLIWIIIMMVLTQLGAFYIVKDLDWKWVIFGAYAFGSCINHSMTLAIHEIAHNAAFGNCKAMWNRWFGMFANLPIGIPYSISFKRYHMDHHRYLGADGVDVDIPTDFEGWFFCTAFRKFIWVILQPLFYAFRPLFINPKPITYLEVINTVAQVTFDILIYYFLGIKSLVYMLAASLLGLGLHPISGHFIAEHYMFLKGHETYSYYGPLNLLTFSVGYHNEHHDFPNIPGKSLPLVRKIAAEYYDNLPHYNSWIKVLYDFVMDDTISPYSRMKRHQKGEMVLE
Km, µM: 4.34

protein: DEGS1 (Homo sapiens; L175Q) (protein, full-length cDNA (from Hep3B RNA) in pcDNA3, untagged, transfected into DEGS1-knockout HEK-293T (KO-DES-HEK); cell homogenate with Triton X-100) GSRVSREDFEWVYTDQPHADRRREILAKYPEIKSLMKPDPNLIWIIIMMVLTQLGAFYIVKDLDWKWVIFGAYAFGSCINHSMTLAIHEIAHNAAFGNCKAMWNRWFGMFANLPIGIPYSISFKRYHMDHHRYLGADGVDVDIPTDFEGWFFCTAFRKFIWVILQPLFYAFRPQFINPKPITYLEVINTVAQVTFDILIYYFLGIKSLVYMLAASLLGLGLHPISGHFIAEHYMFLKGHETYSYYGPLNLLTFNVGYHNEHHDFPNIPGKSLPLVRKIAAEYYDNLPHYNSWIKVLYDFVMDDTISPYSRMKRHQKGEMVLE
Km, µM: 5.99

Reference source: paper PMC10940770
